Consider the following molecules and their measured Inhibition readings.
tested on: Plasmodium falciparum; assay: GSK_TCMDC: Inhibition of Plasmodium falciparum 3D7 in whole red blood cells, using parasite LDH activity as an index of growth. Test compounds present at 2uM; type: functional
Only the number, expressed in %, is required.

Please review the entries below; each comes with its answer.
[[record]]
molecule = "CC1CN(Cc2ccc(C#N)cc2)CCN1c1ccc(NC(=O)c2cccs2)cc1.O=C(O)C(F)(F)F (stereo not given)"
measurename = "Inhibition"
numericreadout = 93

[[record]]
molecule = "CCc1ccc(CNCC(CCNc2cc(=O)c3ccccc3[nH]2)NCc2cc(Br)cc(Br)c2)o1 (stereo not given)"
measurename = "Inhibition"
numericreadout = 100

[[record]]
molecule = "Cn1cc(CCNc2ccnc(NCCc3coc4ccccc34)n2)c2ccccc21"
measurename = "Inhibition"
numericreadout = 87

[[record]]
molecule = "Cc1ccc2c(O)c([N+](=O)[O-])c(O)nc2c1"
measurename = "Inhibition"
numericreadout = 98

[[record]]
molecule = "O=CO.O=S1(=O)NCc2ccc(Nc3nccc(Nc4ccc5c(cnn5Cc5ccccc5)c4)n3)cc21"
measurename = "Inhibition"
numericreadout = 94

[[record]]
molecule = "C=C1N(C)c2cc([N+](=O)[O-])c(N)cc2C1(C)C"
measurename = "Inhibition"
numericreadout = 98

[[record]]
molecule = "Cc1ccc(CNC(=O)[C@H](CCCN)Nc2cc(C)nc(Nc3ccccc3)n2)cc1.O=C(O)C(F)(F)F"
measurename = "Inhibition"
numericreadout = 90

[[record]]
molecule = "CN(C)CCN(C)Cc1ccc(-c2ccc3c(Nc4ccc(Oc5ccccn5)cc4)ccnc3c2)o1"
measurename = "Inhibition"
numericreadout = 100


Problem: Requested read-out Inhibition, target or system Plasmodium falciparum, entry CCCCCCn1ccc2c3c(N)nc(N)nc3ccc21
Result: 99

Problem: Param readout = Inhibition; param system = Plasmodium falciparum; param query = Cc1ccc(CCC(C)NCC(O)c2cccc(C(F)(F)F)c2)cc1 (stereo not given) ; response: value
Result: 99
